- Target under test: CXCR4 on cultured U937 and Jurkat cells (human, UniProt P61073 1-352)
- Sequence (P61073 whole entry): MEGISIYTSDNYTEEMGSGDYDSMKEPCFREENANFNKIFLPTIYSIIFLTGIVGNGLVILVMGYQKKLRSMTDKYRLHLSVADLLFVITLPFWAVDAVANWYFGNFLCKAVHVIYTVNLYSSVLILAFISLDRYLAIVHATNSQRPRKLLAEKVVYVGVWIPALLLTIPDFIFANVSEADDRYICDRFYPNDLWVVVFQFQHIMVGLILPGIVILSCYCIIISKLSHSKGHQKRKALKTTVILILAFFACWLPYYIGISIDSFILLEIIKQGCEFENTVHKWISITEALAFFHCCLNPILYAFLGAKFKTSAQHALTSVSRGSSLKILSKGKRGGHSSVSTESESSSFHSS
- Assay explanation: cell-based or functional assay
Square brackets hold non-standard residues; d marks the D form. Ends that are not written are not given here.
// returns false unless Percent Inhibition of CXCR4/CXCL12 Induced p-MEK (100 nM Test Article) is strictly below 20%, in which case true

Given LERYHHSVRSTLRPYTK [SEQ ID NO: 74] , is recorded Percent Inhibition of CXCR4/CXCL12 Induced p-MEK (100 nM Test Article) strictly lower than 20%?
false

Continuing:
Given LRRYHHSVRSSLRPYSK [SEQ ID NO: 72] , is recorded Percent Inhibition of CXCR4/CXCL12 Induced p-MEK (100 nM Test Article) strictly lower than 20%?
true

Try this binder too: LERYHHS[dA]RSSLRPFTK [SEQ ID NO: 61]
true

Try this binder too: LDRYHHS[dA]RSSLRPYTK [SEQ ID NO: 8]
false

Try this binder too: LRRYHHSVDSSLRPYTK [SEQ ID NO: 66]
true

Try this binder too: LRDYHHSVRSSLRPYTK [SEQ ID NO: 36]
false

Try this binder too: LERYHHSVRTSLRPYTK [SEQ ID NO: 73]
false
